All values here come from PubChem BioAssay AID624404.

Test system: D54 LucT luciferase reporter counterscreen, luminescence, 24 h
assay-overview: reporter signal increase, D54 LucT cells – cell-based, luminescence, cherry pick, counter-screen for N-linked glycosylation inhibitor project, dose response (AID 624404)
Inconclusive results are not listed.
Quick list: AC35 per entry.

[
  {
    "molecule": "COc1ccccc1N=CC1=C(O)CC(c2ccccc2)CC1=O (stereo unspecified)",
    "test-system": "D54 LucT luciferase reporter counterscreen, luminescence, 24 h",
    "AC35": "173 nM"
  },
  {
    "molecule": "Cc1ccc(Sc2c(CO)c(-c3ccccc3)nn2C)cc1",
    "test-system": "D54 LucT luciferase reporter counterscreen, luminescence, 24 h",
    "AC35": "166 nM"
  },
  {
    "molecule": "O=C(Nc1ncccc1O)c1ccc(S(=O)(=O)Nc2ccccc2)cc1",
    "test-system": "D54 LucT luciferase reporter counterscreen, luminescence, 24 h",
    "AC35": "2190 nM"
  },
  {
    "molecule": "O=C(c1ccc(Cl)c(S(=O)(=O)N2CCCCC2)c1)N1CCN(Cc2ccccc2)CC1",
    "test-system": "D54 LucT luciferase reporter counterscreen, luminescence, 24 h",
    "AC35": "1920 nM"
  },
  {
    "molecule": "C=C(C)Cn1c2ccc(NC(=O)CCc3cccc(Cl)c3)cc2c(=O)n1C",
    "test-system": "D54 LucT luciferase reporter counterscreen, luminescence, 24 h",
    "AC35": "4260 nM"
  },
  {
    "molecule": "CCN1C(=O)Nc2cccc3cccc1c23",
    "test-system": "D54 LucT luciferase reporter counterscreen, luminescence, 24 h",
    "AC35": "3140 nM"
  }
]

###

Tested on: D54 LucT luciferase reporter counterscreen, luminescence, 24 h
assay-overview: reporter signal increase, D54 LucT cells – cell-based, luminescence, cherry pick, counter-screen for N-linked glycosylation inhibitor project, dose response (AID 624404)
Inconclusive results are not listed.

[
  {
    "given-smiles": "Cc1cccc(N2CCN(C(=O)c3ccc(Cl)c(S(=O)(=O)NCc4ccco4)c3)CC2)c1C",
    "AC35": "202 nM"
  },
  {
    "given-smiles": "COc1ccc([C@@H]2[C@@H]3C(=O)N(C(C)(C)C)C(=O)[C@@H]3[C@]3(Cc4ccccc4)C(=O)N(c4cccc(C)c4)C(=O)N23)cc1",
    "AC35": "843 nM"
  },
  {
    "given-smiles": "COc1ccc2[nH]c(C(=O)N3CCN(Cc4ccccc4)CC3)cc2c1OC",
    "AC35": "2980 nM"
  },
  {
    "given-smiles": "Cn1c(SCC(=O)c2ccc(F)cc2)ncc(C(=O)Nc2ccccc2)c1=O",
    "AC35": "1690 nM"
  },
  {
    "given-smiles": "CCN(CC)CCNC(=O)c1cc2c(=O)n(C)c3ccccc3c2s1",
    "AC35": "3550 nM"
  }
]

###

Test system: D54 LucT luciferase reporter counterscreen, luminescence, 24 h
assay-overview: reporter signal increase, D54 LucT cells – cell-based, luminescence, cherry pick, counter-screen for N-linked glycosylation inhibitor project, dose response (AID 624404)
Inconclusive results are not listed.

[
  {
    "compound": "CCOC(=O)[C@H]1[C@H]2COc3ccc(Br)cc3[C@@H]2N2C(=O)c3cc(OC)c(OC)cc3NC(=O)[C@@]12C",
    "AC35": "3990 nM"
  },
  {
    "compound": "COc1cccc(C(NC(C)=O)c2nc(-c3ccccc3OC)cs2)c1 (configuration not stated)",
    "AC35": "93.3 nM"
  },
  {
    "compound": "O=C(COC(=O)Cn1cnc2ccccc21)Nc1cccc2c1C(=O)c1ccccc1C2=O",
    "AC35": "459 nM"
  },
  {
    "compound": "COCCCNC(=O)c1ccc(-c2c(C)noc2C)c2ccoc12",
    "AC35": "2330 nM"
  },
  {
    "compound": "O=C(C=Cc1ccccc1F)c1ccccc1",
    "AC35": "199 nM"
  },
  {
    "compound": "COc1cc(C(=O)N/N=C(\\C)c2ccc3c(c2)OCO3)cc(OC)c1OC",
    "AC35": "92.4 nM"
  },
  {
    "compound": "c1ccc(Cc2nnc(Sc3ccccc3)c3ccccc23)cc1",
    "AC35": "3830 nM"
  },
  {
    "compound": "CCNc1oc(/C=C/c2ccc(OCC)cc2)nc1C#N",
    "AC35": "940 nM"
  },
  {
    "compound": "COc1ccccc1-c1csc(C(NC(C)=O)c2cccc(F)c2)n1 (configuration not stated)",
    "AC35": "590 nM"
  },
  {
    "compound": "COc1ccc(C2=NOC(C(=O)NCc3ccco3)C2)cc1 (configuration not stated)",
    "AC35": "784 nM"
  },
  {
    "compound": "COc1cc2c(cc1OC)C(c1cccs1)N(C(=O)c1cccnc1)CC2 (configuration not stated)",
    "AC35": "438 nM"
  },
  {
    "compound": "CC(C)n1cc(NC(=O)c2cc(-c3ccccc3)on2)cn1",
    "AC35": "568 nM"
  },
  {
    "compound": "O=C(/C=C/c1ccccc1Cl)c1ccc(O)cc1",
    "AC35": "201 nM"
  },
  {
    "compound": "CCOC(=O)c1c(NC(=O)c2cc3n(n2)C(C(F)(F)F)CC(c2cccs2)N3)sc(C)c1C (configuration not stated)",
    "AC35": "5360 nM"
  },
  {
    "compound": "Cc1ccc(C(=O)N/C(=C/c2cccs2)C(=O)NCCc2c[nH]c3ccccc23)cc1",
    "AC35": "1170 nM"
  },
  {
    "compound": "Cc1ccc2nc(SCc3nnc(-c4ccccc4[N+](=O)[O-])o3)c(C#N)cc2c1",
    "AC35": "1300 nM"
  },
  {
    "compound": "COc1ccc(CC(=O)NCc2ccc(-n3cccc3)cc2)cc1OC",
    "AC35": "1610 nM"
  },
  {
    "compound": "Cc1ccc(-c2cc(C(=O)NCC(c3ccccc3)N(C)C)c3ccccc3n2)o1 (configuration not stated)",
    "AC35": "3300 nM"
  },
  {
    "compound": "Nc1c(C(=O)c2ccccc2)sc2nsc(SCCN3CCOCC3)c12",
    "AC35": "57.8 nM"
  },
  {
    "compound": "Cc1ccc(C(=O)NCc2nnc(SCC(=O)NC(C)c3ccccc3)n2C)cc1 (configuration not stated)",
    "AC35": "2430 nM"
  },
  {
    "compound": "COC(=O)c1ccc(C)c(NC(=O)CN(c2cc(OC)ccc2OC)S(C)(=O)=O)c1",
    "AC35": "226 nM"
  },
  {
    "compound": "COc1cc2c(cc1OC)CN(c1ccc(-c3ccccc3OC)nn1)CC2",
    "AC35": "7870 nM"
  },
  {
    "compound": "COc1ccc(CNCC(=O)Nc2ccccc2-n2cccc2)cc1",
    "AC35": "62.9 nM"
  },
  {
    "compound": "COc1ccc(CCn2c(=N)c(C(=O)NCC3CCCO3)cc3c(=O)n4cccc(C)c4nc32)cc1OC (configuration not stated)",
    "AC35": "154 nM"
  },
  {
    "compound": "CCc1ccc(C(=O)Nc2ccc3c(c2)n(C)c(=O)n3C)cc1",
    "AC35": "2630 nM"
  },
  {
    "compound": "Cn1nc(C(=O)Nc2cccc(S(=O)(=O)N3CCCCC3)c2)c2ccccc2c1=O",
    "AC35": "50.3 nM"
  },
  {
    "compound": "COc1ccc(C(=O)/C=C/c2ccc(OC)c(O)c2)c(F)c1",
    "AC35": "219 nM"
  },
  {
    "compound": "CC(=O)c1c(C)[nH]c(C(=O)Nc2nccs2)c1C",
    "AC35": "379 nM"
  },
  {
    "compound": "COc1ccc(C(=O)N/N=C/C23CC[C@@H](O)CC2(O)CC[C@@H]2[C@@H]3CCC3(C)C(C4=CC(=O)OC4)CCC23O)cc1 (some centres not stated)",
    "AC35": "388 nM"
  },
  {
    "compound": "O=C(Nc1ccccc1O)c1ccc(NC(=O)C2CC2)cc1",
    "AC35": "432 nM"
  },
  {
    "compound": "Cn1c(=O)n(C)c2cc(NS(=O)(=O)c3ccc4c(c3)CCCC4)ccc21",
    "AC35": "416 nM"
  },
  {
    "compound": "COc1cc(F)ccc1-c1csc(C(NC(C)=O)c2cccc(F)c2)n1 (configuration not stated)",
    "AC35": "93.1 nM"
  },
  {
    "compound": "O=S(=O)([N-]c1nc2ccccc2nc1-n1cc[n+](Cc2ccccc2)c1)c1ccc(Cl)cc1",
    "AC35": "89.8 nM"
  },
  {
    "compound": "Cc1cnc(C(=O)Nc2ccc(OC(F)(F)F)cc2)cn1",
    "AC35": "3180 nM"
  },
  {
    "compound": "CC#CCN1c2ccccc2[C@]23C[C@@H](C(=O)OC)N(C(=O)c4cc(C)oc4C)C2=NC(C(=O)OC)=C(C(=O)OC)[C@H]13",
    "AC35": "2270 nM"
  },
  {
    "compound": "Cn1c(=O)cc(OCCCC(=O)Nc2ccc3c(c2)OCCO3)c2ccccc21",
    "AC35": "353 nM"
  },
  {
    "compound": "COc1ccc(Nc2nc(-c3sc(C)nc3C)cs2)c(OC)c1",
    "AC35": "75 nM"
  },
  {
    "compound": "Cc1ccc(-n2c(SCC(=O)NCCC3=CCCCC3)nc3n[nH]c(C)c3c2=N)cc1Cl",
    "AC35": "39.9 nM"
  },
  {
    "compound": "COc1ccc(/C=C2\\SC(=O)N(CCNC(=O)C3=COCCO3)C2=O)cc1",
    "AC35": "854 nM"
  },
  {
    "compound": "COc1cc(NC(=O)c2ccccc2OCc2ccccc2)cc(OC)c1OC",
    "AC35": "1080 nM"
  },
  {
    "compound": "COc1ccc(C(=O)/C=C/c2ccc(-c3ccccc3)cc2)cc1CSCC(=O)O",
    "AC35": "875 nM"
  },
  {
    "compound": "O=C(NO)c1ccc(OC(F)F)cc1",
    "AC35": "1520 nM"
  }
]
